study-target: mouse TAAR1 (Mus musculus (Mouse))
Sequence (Q923Y8 whole entry): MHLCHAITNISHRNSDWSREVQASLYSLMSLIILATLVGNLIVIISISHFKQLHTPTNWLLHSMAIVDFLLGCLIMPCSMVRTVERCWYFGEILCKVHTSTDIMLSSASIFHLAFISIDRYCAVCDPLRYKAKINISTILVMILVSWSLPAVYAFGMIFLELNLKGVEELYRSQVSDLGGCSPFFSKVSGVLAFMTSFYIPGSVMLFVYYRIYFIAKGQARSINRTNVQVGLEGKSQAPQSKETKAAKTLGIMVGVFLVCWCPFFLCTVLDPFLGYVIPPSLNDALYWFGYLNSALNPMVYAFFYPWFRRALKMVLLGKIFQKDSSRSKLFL
experiment-summary: Radioligand binding assay on mouse TAAR1
test-context: mouse TAAR1, HEK-293 membranes, first value of cell mouse/rat; hydrochloride; read-out: Ki (μM) mouse
Where a name gives a salt, the structure may show the parent alone.
quantity-measured: Ki (µM)

- CSc1ccc(C(=O)Nc2ccc([C@@H]3CNCCO3)cc2)cc1 [Example 266, hydrochloride]: 0.0163

###

study-target: rat TAAR1 (Rattus norvegicus (Rat), UniProt Q923Y9)
Sequence (Q923Y9 whole entry): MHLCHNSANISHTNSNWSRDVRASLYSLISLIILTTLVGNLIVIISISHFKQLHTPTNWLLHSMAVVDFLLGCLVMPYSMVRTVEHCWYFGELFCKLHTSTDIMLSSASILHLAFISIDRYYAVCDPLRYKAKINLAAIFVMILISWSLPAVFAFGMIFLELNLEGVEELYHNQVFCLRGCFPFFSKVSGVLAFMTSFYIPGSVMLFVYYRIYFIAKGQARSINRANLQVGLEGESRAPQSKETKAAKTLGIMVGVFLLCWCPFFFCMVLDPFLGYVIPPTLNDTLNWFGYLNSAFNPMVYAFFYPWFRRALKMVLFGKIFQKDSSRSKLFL
experiment-summary: Radioligand binding assay on rat TAAR1
test-context: rat TAAR1, HEK-293 membranes, second value of cell mouse/rat; read-out: Ki (μM) rat
Where a name gives a salt, the structure may show the parent alone.
The label t is reserved for Ki strictly under 0.01 µM; f covers values equal to or above it.

* O=C(Nc1ccc([C@H]2CNCCO2)cc1)c1ccc(Cl)cc1I | t
* O=C(Nc1ccc(C2CCNC2)cc1)c1ccccc1 (racemic) [Example 13, hydrochloride] | f
* C#Cc1ccc(C(=O)Nc2ccc(CCC3CCCCN3)cc2)cc1 (racemic) [Example 177, hydrochloride] | t
* O=C(Nc1ccc(C2CCNC2)cc1)OCCc1cccc(C(F)(F)F)c1 (racemic) | t
* Cc1ccc(C(=O)Nc2ccc([C@H]3CCCNC3)cc2)cc1C [Example 260, hydrochloride] | t
* COC(C(=O)Nc1ccc(C2CCNC2)cc1)c1ccc(Cl)cc1 (racemic) | f
* CC(C(=O)Nc1ccc(C2CCNC2)cc1)c1cccc(C#N)c1 (racemic) | f
* O=C(Nc1ccc([C@H]2CCCNC2)cc1)c1ccc(Cl)c(Cl)c1 [Example 150, hydrochloride] | t
* Cc1cc(C(=O)Nc2ccc(C3CNCCO3)cc2)ccn1 (racemic) [Example 294, dihydrochloride] | f
* O=C(Nc1ccc(CCC2CCCCN2)cc1)c1ccc(F)cc1 (racemic) [Example 170, hydrochloride] | f
* O=C(Nc1ccc(C2CCNC2)cc1)c1ccc(Cl)cc1 (racemic) [Example 16, hydrochloride] | t
* O=C(Nc1ccc(C2CNCCO2)cc1)c1cccc(Cl)c1 (racemic) [Example 209, hydrochloride] | t
* COc1ccc2nc(C(=O)Nc3ccc(C4CCNC4)cc3)ccc2c1 (racemic) [Example 91, hydrochloride] | f
* O=C(CCc1ccc(Cl)cc1)Nc1ccc(C2CCCNC2)cc1 (racemic) [Example 101, hydrochloride] | f
* O=C(Nc1ccc(OC2CCNC2)cc1)c1ccc(Cl)cc1 (racemic) [Example 39, hydrochloride] | f
* CC(C(=O)Nc1ccc(C2CCCNC2)cc1)c1cccc(OC(F)(F)F)c1 (racemic) | f

###

study-target: UniProt:Q923Y9
experiment-summary: Radioligand binding assay on rat TAAR1
test-context: rat TAAR1, HEK-293 membranes, second value of cell mouse/rat; read-out: Ki (μM) rat
Structures can show the parent of a compound that is named as a salt.
// reported Ki per item
quantity-measured: Ki (µM)

• O=C(Nc1ccc(C2CNCCO2)cc1)c1ccc(N2CCOCC2)nc1 (racemic) [Example 241, hydrochloride] = 0.116
• O=C(Nc1ccc(C2CCNC2)cc1)c1ccc(-n2cccn2)nc1 (racemic) [Example 73, hydrochloride] = 0.0257
• O=C(Nc1ccc(CCC2CCNC2)cc1)Nc1ccc(Cl)cn1 (racemic) [Example 114, hydrochloride] = 0.0074
• O=C(Nc1ccc(CCC2CCCCN2)cc1)c1ccc(Cl)nc1 (racemic) [Example 173, hydrochloride] = 0.0218
• O=C(Nc1ccc(CCC2CCCCN2)cc1)c1cnc(Cl)cn1 (racemic) [Example 174, hydrochloride] = 0.0159
• Cc1ccc(C(=O)Nc2ccc([C@@H]3CNCCO3)cc2)cc1 [Example 195, hydrochloride] = 0.0022
• O=C(Nc1ccc(C2CCNC2)cc1)Nc1ccc(Cl)cn1 (racemic) [Example 44, hydrochloride] = 0.0022
• O=C(Nc1ccc(C2CCCNC2)cc1)Nc1ccc(Cl)cn1 (racemic) [Example 83, hydrochloride] = 0.012
• O=C(Nc1ccc(C2CCNC2)cc1)OCCc1ccc(Cl)c(Cl)c1 (racemic) = 0.0022
• CCc1ccc(C(=O)Nc2ccc([C@@H]3CCCNC3)cc2)cn1 = 0.0044
• O=C(Nc1ccc(C2CNCCO2)cc1)c1csc(-c2ncccn2)n1 (racemic) [Example 290, hydrochloride] = 0.324
• COc1ccc(C(=O)Nc2ccc(C3CCCNC3)cc2)cc1 (racemic) [Example 186, hydrochloride] = 0.0027
• O=C(Nc1ccc(CCC2CCCCN2)cc1)c1ccc(C(F)(F)F)cc1 (racemic) [Example 175, hydrochloride] = 0.0027
• C[C@@H]1CNC[C@H](c2ccc(NC(=O)c3ccc(Cl)nc3)cc2)O1 [Example 310, hydrochloride] = 0.0108
• N#Cc1ccc(C(=O)Nc2ccc(C3CNCCO3)cc2)cn1 (racemic) = 0.005
• CSc1ccc(C(=O)Nc2ccc([C@@H]3CCCNC3)cc2)cn1 [Example 244, hydrochloride] = 0.0049
• O=C(Nc1ccc(C2CNCCO2)cc1)C1CCN(c2ccncn2)CC1 (racemic) [Example 287, dihydrochloride] = 0.379
• Cc1ccc(C(=O)Nc2ccc([C@H]3CCCNC3)cc2)cn1 [Example 264, hydrochloride] = 0.0143
• O=C(Nc1ccc(C2CCCNC2)cc1)c1ccc(C(F)(F)F)cc1 (racemic) [Example 98, hydrochloride] = 0.0114
• O=C(Nc1ccc(C2CCNC2)cc1)OCCc1cccc(Cl)c1 (racemic) = 0.0004
• O=C(Nc1ccc(N2CCNCC2)cc1)c1ccc(Cl)cc1 [Example 59, hydrochloride] = 0.0014
• O=C(NCc1ccc([C@@H]2CNCCO2)cc1)c1cccc(Cl)c1 [Example 313, hydrochloride] = 0.0154
• O=C(Nc1ccc([C@H]2CCCNC2)cc1)c1ccc(Cl)cn1 [Example 167, hydrochloride] = 0.0048
• CCOc1ccc(C(=O)Nc2ccc(C3CCNC3)cc2)cc1 (racemic) [Example 52, hydrochloride] = 0.0109
• O=C(Nc1ccc(C2CCNC2)cc1)c1ccc(OCC(F)(F)F)nc1 (racemic) [Example 89, hydrochloride] = 0.006
• O=C(Nc1ccc(C2CCCNC2)cc1)c1ccc(OCC(F)(F)F)nc1 (racemic) [Example 178, hydrochloride] = 0.002
• O=C(Nc1ccc([C@@H]2CCNC2)cc1)c1ccc(OCC(F)(F)F)nc1 [Example 205, hydrochloride] = 0.0035
• O=C(Nc1ccc([C@H]2CNCCCO2)cc1)c1cccc(Cl)c1 [Example 308, hydrochloride] = 0.0018
• Cc1ccc(C(=O)Nc2ccc([C@@H]3CCCNC3)cc2)cc1C [Example 227, hydrochloride] = 0.0012
• Cc1ccc(C(=O)Nc2ccc([C@@H]3CCCNC3)cc2)cc1Cl [Example 225, hydrochloride] = 0.0006
• O=C(Nc1ccc(C2CCCNC2)cc1)c1cccc(Cl)c1 (racemic) [Example 92, hydrochloride] = 0.0238
